- Test system: Escherichia coli
- protocolDescription: MIC per disc against Escherichia coli by disc diffusion method
- Format: functional
Active and inactive are the calls of the source. The rule behind the calls is not given here.
assayReadout: MIC

- Cc1c2n(c3ccccc13)CCNC2c1ccccc1 (stereo not drawn): inactive
- COc1cccc(C2NCCn3c2c(C)c2ccccc23)c1 (stereo not drawn): 30 µg
- CCOP(=O)(CN1CCn2c(c(C)c3ccccc32)C1)OCC: inactive
- Cc1c2n(c3ccccc13)CCN(Cn1nnc3ccccc31)C2: inactive
- Cc1cn2c(cc3ccccc32)c(C)n1: 60 µg

// field: MIC; key: Cc1ccc(CN2CCn3c(c(C)c4ccccc43)C2)cc1 ; value = inactive

// field: MIC; key: Cc1c2n(c3ccccc13)CCNC2c1ccccn1 (stereo not drawn) ; value = inactive

// field: MIC; key: Cc1c2n(c3ccccc13)CCNC2c1ccc([N+](=O)[O-])cc1 (stereo not drawn) ; value = 30 µg

// field: MIC; key: Cc1ccc(C2NCCn3c2c(C)c2ccccc23)cc1 (stereo not drawn) ; value = 15 µg

// field: MIC; key: Cc1c2n(c3ccccc13)CCNC2c1ccc(F)cc1 (stereo not drawn) ; value = 15 µg

// field: MIC; key: Cc1c2n(c3ccccc13)CCN(CC#N)C2 ; value = inactive

// field: MIC; key: Cc1cn2c(cc3ccccc32)c(-c2ccccc2)n1 ; value = 60 µg

// field: MIC; key: Cc1c2n(c3ccccc13)CCNC2c1ccc(Br)cc1 (stereo not drawn) ; value = inactive

// field: MIC; key: C[C@H]1c2cccc(O)c2C(=O)C2=C(O)[C@]3(O)C(=O)C(C(N)=O)=C(O)[C@@H](N(C)C)[C@@H]3[C@@H](O)[C@@H]21.Cl [DOXYCYCLINE HYDROCHLORIDE] ; value = 2 µg

// field: MIC; key: Cc1c2n(c3ccccc13)CCN(Cc1ccccc1)C2 ; value = inactive

// field: MIC; key: Cc1c2n(c3ccccc13)CCN(C)C2 ; value = inactive

// field: MIC; key: Cc1c2n(c3ccccc13)CCNC2c1cccc(Cl)c1 (stereo not drawn) ; value = inactive

// field: MIC; key: Cc1c2n(c3ccccc13)CCNC2c1cccs1 (stereo not drawn) ; value = inactive
